These entries and their values trace back to paper PMC2168396.

# EXPERIMENTAL SYSTEM: filamentous actin (F-actin) from rabbit skeletal muscle (rabbit, UniProt P68135 1-377)
# TEST NAME: co-sedimentation
READOUT KIND: co-sedimentation pellet (% of WT)

// fetch co-sedimentation pellet (% of WT) given entry talin 2300–2541 V2376D (domain or fragment, mouse, UniProt P26039 2300-2541, looked up) DPTVIAENELLGAAAAIEAAAKKLEQLKPRAKPKEADESLNFEEQILEAAKSIAAATSALVKAASAAQRELVAQGKDGAIPANALDDGQWSQGLISAARMVAAATNNLCEAANAAVQGHASQEKLISSAKQVAASTAQLLVACKVKADQDSEAMKRLQAAGNAVKRASDNLVKAAQKAAAFEDQENETVVVKEKMVGGIAQIIAAQEEMLRKERELEEARKKLAQIRQQQYKFLPSELRDEH
95 % of WT

State its co-sedimentation pellet (% of WT): talin 2300–2541 L2515D/A2518D (domain or fragment) DPTVIAENELLGAAAAIEAAAKKLEQLKPRAKPKEADESLNFEEQILEAAKSIAAATSALVKAASAAQRELVAQGKVGAIPANALDDGQWSQGLISAARMVAAATNNLCEAANAAVQGHASQEKLISSAKQVAASTAQLLVACKVKADQDSEAMKRLQAAGNAVKRASDNLVKAAQKAAAFEDQENETVVVKEKMVGGIAQIIAAQEEMLRKEREDEEDRKKLAQIRQQQYKFLPSELRDEH
42 % of WT

Find the measured co-sedimentation pellet (% of WT) of talin 2300–2541 R2526A (domain or fragment) DPTVIAENELLGAAAAIEAAAKKLEQLKPRAKPKEADESLNFEEQILEAAKSIAAATSALVKAASAAQRELVAQGKVGAIPANALDDGQWSQGLISAARMVAAATNNLCEAANAAVQGHASQEKLISSAKQVAASTAQLLVACKVKADQDSEAMKRLQAAGNAVKRASDNLVKAAQKAAAFEDQENETVVVKEKMVGGIAQIIAAQEEMLRKERELEEARKKLAQIAQQQYKFLPSELRDEH and report it.
37 % of WT

// Input: talin 2300–2541 (C-terminal actin-binding domain, wild type) (domain or fragment, mouse, UniProt P26039 2300-2541, looked up) DPTVIAENELLGAAAAIEAAAKKLEQLKPRAKPKEADESLNFEEQILEAAKSIAAATSALVKAASAAQRELVAQGKVGAIPANALDDGQWSQGLISAARMVAAATNNLCEAANAAVQGHASQEKLISSAKQVAASTAQLLVACKVKADQDSEAMKRLQAAGNAVKRASDNLVKAAQKAAAFEDQENETVVVKEKMVGGIAQIIAAQEEMLRKERELEEARKKLAQIRQQQYKFLPSELRDEH . Output its co-sedimentation pellet (% of WT) only.
100 % of WT

Return co-sedimentation pellet (% of WT) for the following binder: talin 2300–2541 Q2388R (domain or fragment, mouse, UniProt P26039 2300-2541, looked up) DPTVIAENELLGAAAAIEAAAKKLEQLKPRAKPKEADESLNFEEQILEAAKSIAAATSALVKAASAAQRELVAQGKVGAIPANALDDGRWSQGLISAARMVAAATNNLCEAANAAVQGHASQEKLISSAKQVAASTAQLLVACKVKADQDSEAMKRLQAAGNAVKRASDNLVKAAQKAAAFEDQENETVVVKEKMVGGIAQIIAAQEEMLRKERELEEARKKLAQIRQQQYKFLPSELRDEH
102 % of WT
